# tgt: OCT2 (hOCT2) (Homo sapiens)
# Sequence (O15244 whole entry): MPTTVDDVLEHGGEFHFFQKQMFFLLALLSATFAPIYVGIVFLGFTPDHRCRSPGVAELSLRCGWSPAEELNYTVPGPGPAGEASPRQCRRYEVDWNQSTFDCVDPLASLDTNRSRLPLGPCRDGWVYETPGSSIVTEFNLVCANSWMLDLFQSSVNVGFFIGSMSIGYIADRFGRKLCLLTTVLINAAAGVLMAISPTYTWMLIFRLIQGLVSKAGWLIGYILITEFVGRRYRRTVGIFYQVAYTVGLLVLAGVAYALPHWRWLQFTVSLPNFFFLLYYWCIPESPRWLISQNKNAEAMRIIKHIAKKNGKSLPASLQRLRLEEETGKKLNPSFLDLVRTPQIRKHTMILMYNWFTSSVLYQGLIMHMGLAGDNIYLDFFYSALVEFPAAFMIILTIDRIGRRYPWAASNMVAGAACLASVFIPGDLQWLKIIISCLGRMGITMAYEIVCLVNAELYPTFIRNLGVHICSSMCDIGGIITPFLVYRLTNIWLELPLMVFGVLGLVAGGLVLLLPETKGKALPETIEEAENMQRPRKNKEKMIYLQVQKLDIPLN
# method-description: inhibition of ASP uptake in Hela cells overexpressing hOCT2 ([…] in HEK293 cells)
measured-property: pIC50
In textbook form, pIC50 equals minus log to base ten of the concentration in mol/L.

Entry `CNCC[C@H](Oc1cccc2ccccc12)c1cccs1` — recorded pIC50 = 5.40
